Just for reference, patent US20210062177A1 is where these values come from.

System: ScCD6
Assay: Effects of metal ions and chemical reagents on ScCD6 enzyme activity
Type: biochemical, Streptomyces coelicolor A3(2)
Conditions: ScCD6 activity with metal ion/chemical reagent, control = 100.00
I'd appreciate it if you could supply Relative enzyme activity % values for the items below.
// note: answer is a bare numeric in %

Exercise: Which Relative enzyme activity % value is on record for [Fe+3] ?
Solution: 110.41

Exercise: Look up Relative enzyme activity %: [Zn+2]
Solution: 109.04

Exercise: State the recorded Relative enzyme activity % for this entry: [Ba+2]
Solution: 108.96

Exercise: Fill blank: measured Relative enzyme activity % of the compound [Co+2] is ____.
Solution: 106.89

Exercise: Looking for the measured Relative enzyme activity % of [Na+] , can you help?
Solution: 101.15

Exercise: What measured Relative enzyme activity % goes with [Mg+2] ?
Solution: 91.64

Exercise: Form field: reported Relative enzyme activity % of [Cu+2]
Solution: 86.33

Exercise: Entry [Ni+2] has what Relative enzyme activity %?
Solution: 85.86

Exercise: Entry CCCCCCCCCCCCOS(=O)(=O)[O-].[Na+] : reported Relative enzyme activity % = ?
Solution: 92.02

Exercise: What Relative enzyme activity % value was documented for this compound, [Ca+2] ?
Solution: 101.76

Exercise: Tell me the measured Relative enzyme activity % of O=C([O-])CN(CCN(CC(=O)[O-])CC(=O)O)CC(=O)O.[Na+].[Na+] , please.
Solution: 1.03

Exercise: Can you look up the measured Relative enzyme activity % of [Mn+2] for me?
Solution: 110.91

Exercise: Bench note: what Relative enzyme activity % did [K+] show?
Solution: 98.28
